Overview of reported Activity across a group of molecules:
- measurement-target: Lanosterol 14-alpha demethylase (Candida albicans (strain SC5314 / ATCC MYA-2876) (Yeast), UniProt P10613)
- Sequence (P10613 whole entry): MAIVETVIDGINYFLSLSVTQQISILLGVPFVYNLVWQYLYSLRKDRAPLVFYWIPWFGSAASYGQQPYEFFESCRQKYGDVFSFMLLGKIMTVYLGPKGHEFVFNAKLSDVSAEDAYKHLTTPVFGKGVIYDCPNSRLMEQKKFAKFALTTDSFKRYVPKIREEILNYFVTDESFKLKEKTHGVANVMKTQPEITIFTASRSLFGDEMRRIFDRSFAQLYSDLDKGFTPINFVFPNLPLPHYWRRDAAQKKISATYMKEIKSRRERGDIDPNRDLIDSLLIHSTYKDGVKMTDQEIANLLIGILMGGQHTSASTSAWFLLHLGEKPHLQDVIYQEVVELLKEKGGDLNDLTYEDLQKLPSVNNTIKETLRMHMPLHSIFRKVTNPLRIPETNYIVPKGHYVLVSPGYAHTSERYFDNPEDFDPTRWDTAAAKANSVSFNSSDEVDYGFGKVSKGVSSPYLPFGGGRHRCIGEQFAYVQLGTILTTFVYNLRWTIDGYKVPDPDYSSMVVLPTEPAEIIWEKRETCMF
- procedure-text: Inhibition of Candida albicans ATCC SC5314 CYP51 assessed as ergosterol content at 4 ug/ml measured after 16 hrs by GC-MS analysis (reference value: 92.71%)
- Parameters: scale not given: the % may be the effect or the level left
- condition-notes: at 4 µg/mL
Please give a number only; it is taken to be in %.

For orientation, consider the following solved cases.
OC(Cn1cncn1)(Cn1cncn1)c1ccc(F)cc1F [FLUCONAZOLE]: 17.84
CC(C)c1ccc(C(=O)N2CCC(NC(=O)c3nc(-n4ccnc4)c4ccccc4n3)CC2)cc1: 20.92
CC(=O)c1ccc(NC(=O)c2nc(-n3ccnc3)c3ccccc3n2)cc1: 21.53

Please report the measured Activity for CC(=O)c1ccc(C(=O)N2CCC(NC(=O)c3nc(-n4cncn4)c4ccccc4n3)CC2)cc1
18.64

Taken from ChEMBL document CHEMBL5365481.
